- Organism: Rattus norvegicus
- assay_remarks: In vitro inhibitory effect on D-Galactosamine induced cytotoxicity in primary cultured rat hepatocytes at 1 ug/mL
- Assay type: functional
- assay_conditions: Hepatocyte

compound | inhibition at 1 µg/mL
C[C@H]1O[C@@H](O[C@H]2CC[C@@]3(C)C(CC[C@]4(C)C3C(=O)C=C3C5CC(C)(C)CC[C@]5(CO)[C@@H](O)C[C@]34C)[C@]2(C)CO)[C@H](O)[C@@H](O[C@@H]2O[C@H](CO)[C@@H](O)[C@H](O)[C@H]2O)[C@H]1O (some centres not stated) | 16.9%
CO[C@@H]1C=C2C3CC(C)(C)CC[C@]3(CO)[C@H](O)C[C@@]2(C)[C@]2(C)CCC3[C@](C)(CC[C@H](O[C@@H]4O[C@H](C)[C@H](O)[C@H](O[C@@H]5O[C@H](CO)[C@@H](O)[C@H](O)[C@H]5O[C@@H]5O[C@H](CO)[C@@H](O)[C@H](O)[C@H]5O)[C@H]4O)[C@@]3(C)CO)C12 (some centres not stated) | 0.3%
C[C@@H]1O[C@@H](O[C@@H]2[C@H](O)[C@@H](O)[C@H](OC3CC[C@@]4(C)C(CC[C@]5(C)[C@@H]4[C@H](O)C=C4C6CC(C)(C)CC[C@]6(CO)[C@@H](O)C[C@]45C)C3(C)C)O[C@@H]2CO[C@@H]2O[C@H](CO)[C@@H](O)[C@H](O)[C@H]2O)[C@H](O)[C@H](O)[C@H]1O (some centres not stated) | -5.1%
C[C@H]1O[C@@H](O[C@H]2CC[C@@]3(C)C(CC[C@]4(C)C3[C@H](O)CC3C5=CC(C)(C)CC[C@]5(CO)[C@@H](O)C[C@]34C)[C@]2(C)CO)[C@H](O)[C@@H](O[C@@H]2O[C@H](CO)[C@@H](O)[C@H](O)[C@H]2O)[C@H]1O (some centres not stated) | 39.7%
C[C@@H]1O[C@@H](O[C@@H]2[C@H](O)[C@@H](O)[C@H](O[C@H]3CC[C@@]4(C)C(CC[C@]5(C)C4C(=O)C=C4C6CC(C)(C)CC[C@]6(CO)[C@@H](O)C[C@]45C)C3(C)C)O[C@@H]2CO[C@@H]2O[C@H](CO)[C@@H](O)[C@H](O)[C@H]2O)[C@H](O)[C@H](O)[C@H]1O (some centres not stated) [BUPLEUROSIDE VII] | 2.5%
CO[C@@H]1C=C2C3CC(C)(C)CC[C@]3(CO)[C@@H](O)C[C@@]2(C)[C@]2(C)CCC3C(C)(C)C(O[C@@H]4O[C@H](CO[C@@H]5O[C@H](CO)[C@@H](O)[C@H](O)[C@H]5O)[C@H](O[C@@H]5O[C@@H](C)[C@H](O)[C@@H](O)[C@H]5O)[C@H](O)[C@H]4O)CC[C@]3(C)[C@@H]12 (some centres not stated) | 9.7%
C[C@@H]1O[C@@H](O[C@H]2[C@@H](O)[C@@H](CO[C@@H]3O[C@H](CO)[C@@H](O)[C@H](O)[C@H]3O)O[C@@H](OC3CC[C@@]4(C)C(CC[C@]5(C)C4C=CC4=C6CC(C)(C)CC[C@]6(CO)[C@H](O)C[C@]45C)[C@]3(C)CO)[C@@H]2O)[C@H](O)[C@H](O)[C@H]1O (some centres not stated) [BUPLEUROSIDE X] | 3.9%
